measurement target: T1, ADAAD wild type (GST cleaved) (UniProt Q9TTA5 229-940)
T1 sequence: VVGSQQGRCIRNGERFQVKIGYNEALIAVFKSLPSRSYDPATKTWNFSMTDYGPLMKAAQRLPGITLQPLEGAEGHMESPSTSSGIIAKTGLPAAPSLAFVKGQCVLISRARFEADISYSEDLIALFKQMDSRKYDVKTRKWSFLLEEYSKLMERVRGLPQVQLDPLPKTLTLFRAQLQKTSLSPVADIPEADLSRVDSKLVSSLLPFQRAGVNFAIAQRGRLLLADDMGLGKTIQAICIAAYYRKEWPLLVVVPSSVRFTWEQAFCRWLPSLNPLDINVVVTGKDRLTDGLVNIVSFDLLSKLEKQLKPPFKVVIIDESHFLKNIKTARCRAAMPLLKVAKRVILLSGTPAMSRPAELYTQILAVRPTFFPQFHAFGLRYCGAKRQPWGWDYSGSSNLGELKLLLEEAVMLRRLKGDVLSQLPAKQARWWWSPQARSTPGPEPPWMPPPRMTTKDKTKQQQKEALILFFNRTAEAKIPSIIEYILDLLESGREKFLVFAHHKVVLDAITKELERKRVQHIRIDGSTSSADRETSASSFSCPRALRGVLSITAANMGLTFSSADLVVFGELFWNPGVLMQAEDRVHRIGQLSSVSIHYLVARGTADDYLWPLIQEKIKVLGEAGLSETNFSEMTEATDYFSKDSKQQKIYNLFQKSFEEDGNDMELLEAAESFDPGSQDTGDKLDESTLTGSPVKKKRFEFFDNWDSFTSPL
assay overview: intrinsic tryptophan fluorescence quenching; Fluorescence at 25 C (Cary-Varian spectrofluorimeter); buffer, salt and pH not given (as in ref 13)
cond: protein: recombinant; tags: none (GST removed with PreScission); hairpin
parameter: pKd
A value of pKd is the negative decimal logarithm of a concentration given in moles per litre.

If you can, please state the reported pKd value of GCGCAATTGCGCTCGACGATTTTTTAGCGCAATTGCGC (structured_DNA) [slDNA (stem-loop DNA)] .
8.42
